The reported numbers originate from patent US20240116997A1.

Molecular target: T1, IL-18 receptor (IL-18Rαβ) on cells (UniProt Q13478 19-541; O95256 20-599, limits assumed)
T1 sequence (looked up) 1: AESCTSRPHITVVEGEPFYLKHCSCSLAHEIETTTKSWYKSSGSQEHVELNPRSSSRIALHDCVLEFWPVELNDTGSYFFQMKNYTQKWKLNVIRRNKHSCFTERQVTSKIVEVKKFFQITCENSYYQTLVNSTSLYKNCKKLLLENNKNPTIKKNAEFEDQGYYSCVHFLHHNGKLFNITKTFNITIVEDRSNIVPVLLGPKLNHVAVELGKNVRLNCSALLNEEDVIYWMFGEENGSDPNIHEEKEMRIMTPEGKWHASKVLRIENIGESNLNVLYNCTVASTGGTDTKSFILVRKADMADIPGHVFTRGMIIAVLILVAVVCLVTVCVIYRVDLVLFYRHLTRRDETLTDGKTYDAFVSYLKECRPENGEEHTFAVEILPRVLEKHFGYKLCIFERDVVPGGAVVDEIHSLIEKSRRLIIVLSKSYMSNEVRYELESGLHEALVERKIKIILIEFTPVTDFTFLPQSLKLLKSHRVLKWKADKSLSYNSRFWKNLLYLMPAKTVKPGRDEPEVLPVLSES
T1 sequence (looked up) 2: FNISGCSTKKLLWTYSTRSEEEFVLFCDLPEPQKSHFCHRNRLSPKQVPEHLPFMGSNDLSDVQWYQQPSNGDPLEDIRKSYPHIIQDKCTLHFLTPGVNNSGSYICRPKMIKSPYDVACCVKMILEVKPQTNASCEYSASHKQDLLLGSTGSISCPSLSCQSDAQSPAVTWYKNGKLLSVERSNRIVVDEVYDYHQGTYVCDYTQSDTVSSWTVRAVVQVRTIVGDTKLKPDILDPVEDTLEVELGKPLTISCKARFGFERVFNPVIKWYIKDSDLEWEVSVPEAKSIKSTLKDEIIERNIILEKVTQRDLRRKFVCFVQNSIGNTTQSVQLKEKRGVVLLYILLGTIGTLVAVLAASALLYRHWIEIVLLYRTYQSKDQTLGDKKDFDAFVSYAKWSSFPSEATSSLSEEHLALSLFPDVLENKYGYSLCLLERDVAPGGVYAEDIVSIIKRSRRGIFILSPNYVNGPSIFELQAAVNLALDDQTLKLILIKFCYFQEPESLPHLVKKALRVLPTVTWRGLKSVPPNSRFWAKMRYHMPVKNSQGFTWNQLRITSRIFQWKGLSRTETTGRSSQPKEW
Assay: cell-based or functional assay
reported metric: EC50 (nM), IFNγ induction, NK-92 cells
Just the number in nM, nothing appended.

[[record]]
binder = "IL-18 polypeptide SEQ ID NO: 48 (C38S, C68S, C76S, C127S, K70C) (ligand) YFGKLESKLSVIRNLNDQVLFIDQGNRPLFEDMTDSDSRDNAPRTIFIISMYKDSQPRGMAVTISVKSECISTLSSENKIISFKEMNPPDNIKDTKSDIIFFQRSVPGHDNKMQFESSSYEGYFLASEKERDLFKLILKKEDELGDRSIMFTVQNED"
reported_metric = "EC50 (nM), IFNγ induction, NK-92 cells"
units_label = "nM"
meas_value = 0.488


input: State, in one line, measured EC50 (nM), IFNγ induction, NK-92 cells of C153 (V11I, D37A, C38A, K53A, C76A, C127A) (ligand) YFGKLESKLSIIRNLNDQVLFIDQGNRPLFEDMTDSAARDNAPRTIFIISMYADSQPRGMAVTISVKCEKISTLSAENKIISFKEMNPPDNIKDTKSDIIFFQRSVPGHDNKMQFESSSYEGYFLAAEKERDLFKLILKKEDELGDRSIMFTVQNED
output: 0.062

input: State, in one line, measured EC50 (nM), IFNγ induction, NK-92 cells of C168 (V11I, C38A, C76A, S105K, C127A) (ligand) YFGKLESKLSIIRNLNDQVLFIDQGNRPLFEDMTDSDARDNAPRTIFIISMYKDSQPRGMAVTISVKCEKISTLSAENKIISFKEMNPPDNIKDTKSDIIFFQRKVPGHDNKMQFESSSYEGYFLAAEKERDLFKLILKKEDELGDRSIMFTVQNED
output: 1.37
